Catalogue of dMODIFIER readings, one per entry.
- test_name: Interlayer (basal) spacing of kaolinite clay treated with expansive-type precursors/modifiers
- Assay type: physicochemical
- assay_context: kaolinite of Table 1; spacing of the clay with the named modifier
measurement_kind: dMODIFIER (nm)

1) C=CC(N)=O [Archylamide]	1.14
2) CC(N)=O [Acetamide]	1.09
3) CC=O	0.91
4) NN [Anhydrous hydrazine]	0.96
5) O=C(O)c1ccccc1O	1.07
6) CCCCCC(=O)O	1.23
7) C=COC(C)=O [Vinyl acetate]	1.21
8) CNC=O [N-methyl formamide (NMF), N-methyl formamide]	1.02
9) O=C1CCCCCN1	1.18
10) O=C(O)/C=C\C(=O)O	1.20
11) C1CCCCC1	1.02
12) C[S+](C)[O-] [Dimethyl sulfoxide (DMSO), Dimethyl sulfoxide]	1.11
13) CC(=O)O	1.10
14) NN.O [Hydrated hydrazine]	1.03
15) O=C(O)CCCCC(=O)O	1.03
16) O	0.78
17) CCCC(=O)O	1.01
18) CC(O)C(=O)O (centres unmarked)	1.08
19) O=C1C=CC(=O)O1 [Maleic anhydride]	1.20
20) O=C(OC[C@H]1O[C@@H](OC(=O)c2cc(O)c(O)c(OC(=O)c3cc(O)c(O)c(O)c3)c2)[C@H](OC(=O)c2cc(O)c(O)c(OC(=O)c3cc(O)c(O)c(O)c3)c2)[C@@H](OC(=O)c2cc(O)c(O)c(OC(=O)c3cc(O)c(O)c(O)c3)c2)[C@@H]1OC(=O)c1cc(O)c(O)c(OC(=O)c2cc(O)c(O)c(O)c2)c1)c1cc(O)c(O)c(OC(=O)c2cc(O)c(O)c(O)c2)c1	1.09
